Hello, the source for this data is paper PMC10787407, in case you need it.

# Procedure Details: PK study of SM components in plasma of AIA rats by UPLC-MS/MS (MG vs MPS group)
# Settings: MPS group: AIA rats, oral PS 9.8 g crude drug/kg/day 21 days, then oral SM 39.2 g crude drug/kg; plasma; mean ± SEM
Task for the reader: assign each of the following molecules its reported T max.
Numbers only, in min.

# Smi, T max, min
records = [
    ("CCN1C[C@]2(COC)CC[C@H](O)[C@]34C1[C@H]([C@H](OC)[C@H]23)[C@@]1(O)C[C@H](OC)[C@H]2C[C@@H]4[C@@H]1[C@H]2O", 15),
    ("COC[C@]12CN(C)C3[C@@H]4[C@H](OC)[C@H]1[C@@]3([C@@H](OC)C[C@H]2O)[C@@H]1C[C@@]2(O)[C@H](OC(=O)c3ccccc3)[C@@H]1[C@]4(O)[C@@H](O)[C@@H]2OC", 4.98),
    ("O=C1C[C@@H](c2ccc(O)cc2)Oc2cc(O)ccc21", 4.98),
    ("C[C@]12C[C@@H](O)[C@@H]3C[C@@]1(O[C@@H]1O[C@H](CO)[C@@H](O)[C@H](O)[C@H]1O)[C@@]3(COC(=O)c1ccccc1)C(=O)O2", 8.34),
]

Can you look up the measured T max of `CCN1C[C@]2(COC)[C@H](O)C[C@H](OC)[C@@]34[C@@H]5C[C@@]6(O)[C@H](OC(=O)c7ccccc7)[C@@H]5[C@@](O)([C@@H]([C@H](OC)[C@H]23)[C@@H]14)[C@@H](O)[C@@H]6OC` for me?
4.98
